target: chimpanzee EP4 receptor (Pan troglodytes, UniProt Q95KZ0); assay: Competition binding of 3H-PGE2 on CHO-K1 cells transiently transfected with chimpanzee EP4; conditions: read-out: IC50 for displacement of 3H-PGE2 binding; whole CHO-K1 cells transiently transfected with chimpanzee EP4; 3 nM 3H-PGE2; 1 hr on ice
Sequence (Q95KZ0 whole entry): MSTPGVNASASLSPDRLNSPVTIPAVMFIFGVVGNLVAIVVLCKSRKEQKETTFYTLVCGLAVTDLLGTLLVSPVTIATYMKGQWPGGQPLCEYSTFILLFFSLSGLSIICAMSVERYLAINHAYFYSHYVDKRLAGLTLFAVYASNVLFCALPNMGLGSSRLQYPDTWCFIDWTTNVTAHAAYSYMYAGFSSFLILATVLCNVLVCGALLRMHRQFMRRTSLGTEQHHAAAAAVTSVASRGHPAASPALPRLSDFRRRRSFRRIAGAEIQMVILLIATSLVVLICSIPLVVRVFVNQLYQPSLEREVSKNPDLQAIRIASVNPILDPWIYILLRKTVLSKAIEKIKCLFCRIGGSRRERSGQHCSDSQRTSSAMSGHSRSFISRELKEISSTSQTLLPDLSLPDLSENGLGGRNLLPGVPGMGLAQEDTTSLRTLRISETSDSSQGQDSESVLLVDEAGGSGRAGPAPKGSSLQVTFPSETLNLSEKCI
pIC50: −log10 of the molar value.
readout_kind: pIC50

INSERT INTO assay_data (molecule, test_value) VALUES
  ('CCCCC[C@H](O)/C=C/[C@H]1[C@H](O)CC(=O)[C@@H]1C/C=C\CCCC(=O)O [PGE2, Prostaglandin E2]', 8.60);

====

target: UniProt Q95KZ0; assay: cAMP accumulation (SPA) in CHO cells transiently transfected with chimpanzee EP4; conditions: 12 minutes treatment, IBMX present, SPA kit
This section presents compounds with their documented EC50 values.
readout_kind: EC50 (nM)

INSERT INTO results (compound, target_desc, test_value) VALUES
  ('O=C(O)CCCCCCN1C(=O)CCC1CCC(O)Cc1ccccc1 (centres unmarked)', 'UniProt Q95KZ0', 560),
  ('CCCCC[C@H](O)/C=C/[C@H]1[C@H](O)CC(=O)[C@@H]1C/C=C\CCCC(=O)O [PGE2, Prostaglandin E2]', 'UniProt Q95KZ0', 8.9);

====

target: UniProtKB Q95KZ0; assay: Competition binding of 3H-PGE2 on CHO-K1 cells transiently transfected with chimpanzee EP4
readout_kind: IC50 (nM)

INSERT INTO assay_data (compound, readout_unit, test_value) VALUES
  ('O=C(O)CCCCCCN1C(=O)CCC1CCC(O)Cc1ccccc1 (stereo not shown)', 'nM', 300);

Cited source for all entries: patent US20030059890A1
